target: Human BACE2 (Homo sapiens, UniProt Q9Y5Z0); construct: the soluble part of the human β-Secretase2 (AA1-AA473) was cloned using BACE2(1-473)-(AVT)-Fc-pDEST12.2 mammalian expression vector; AVT linker (C); made in house; experiment: TR-FRET assay; format: biochemical; conditions: enzyme 2.7 μg/mL, substrate 100 nM, pH4.5
Sequence (Q9Y5Z0 21-473): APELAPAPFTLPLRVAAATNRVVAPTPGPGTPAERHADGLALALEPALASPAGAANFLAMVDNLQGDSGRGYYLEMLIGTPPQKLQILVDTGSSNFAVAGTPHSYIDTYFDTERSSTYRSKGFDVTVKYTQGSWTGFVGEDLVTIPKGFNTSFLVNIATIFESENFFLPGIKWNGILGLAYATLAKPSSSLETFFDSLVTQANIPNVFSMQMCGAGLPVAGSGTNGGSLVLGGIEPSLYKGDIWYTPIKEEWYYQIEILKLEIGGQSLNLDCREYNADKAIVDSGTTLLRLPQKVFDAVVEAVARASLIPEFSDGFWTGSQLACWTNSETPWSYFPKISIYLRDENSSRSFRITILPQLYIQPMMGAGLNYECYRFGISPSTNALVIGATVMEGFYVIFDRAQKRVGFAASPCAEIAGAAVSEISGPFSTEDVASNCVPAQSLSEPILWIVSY
pIC50: −log10 of the molar value.
ENDPOINT: pIC50

compound="[2H]C1([2H])OC(N)=N[C@]12c1cc(-c3cc(F)cnc3F)ccc1C[C@]21CC[C@@H](OC)[C@H](C)C1 [Compound 109]" endpoint=pIC50 result=6.34

A: [2H]C1([2H])OC(N)=NC12c1cc(OCCC(F)(F)F)ccc1C[C@]21CC[C@@H](OC)CC1 (stereo partly shown) [Compound 45]
B: [2H]C1([2H])OC(N)=N[C@]12c1cc(-c3cncc(C)c3)ccc1C[C@@]21CC[C@H](OC)[C@@H](C)C1 [Compound 28]
C: [2H]C1([2H])OC(N)=N[C@]12c1cc(-c3cccc(Cl)c3)ccc1C[C@]21CC[C@@H](OC)[C@H](C)C1 [Compound 37]
# desc sort on pIC50 across 3 compounds Your task in answering is to list the labels in the requested order.
C, B, A
